# MEASUREMENT_TARGET: Cytochrome P450 2C9 (Homo sapiens, UniProt P11712)
# Sequence (P11712 whole entry): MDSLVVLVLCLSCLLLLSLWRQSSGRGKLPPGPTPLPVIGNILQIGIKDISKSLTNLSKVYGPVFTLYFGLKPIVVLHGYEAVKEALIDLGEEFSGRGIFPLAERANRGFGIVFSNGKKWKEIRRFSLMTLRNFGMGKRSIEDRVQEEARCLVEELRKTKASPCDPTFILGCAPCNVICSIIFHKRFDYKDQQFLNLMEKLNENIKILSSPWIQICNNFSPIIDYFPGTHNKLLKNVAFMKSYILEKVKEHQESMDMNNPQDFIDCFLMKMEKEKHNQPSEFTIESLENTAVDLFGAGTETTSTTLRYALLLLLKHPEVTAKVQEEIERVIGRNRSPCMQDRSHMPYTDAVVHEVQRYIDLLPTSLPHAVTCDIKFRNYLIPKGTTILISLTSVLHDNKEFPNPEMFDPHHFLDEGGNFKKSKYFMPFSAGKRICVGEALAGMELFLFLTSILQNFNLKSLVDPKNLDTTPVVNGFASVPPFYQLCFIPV
READOUT_TYPE: IC50

Q. Look up and state reported IC50 for "Cc1nc(C(=O)N[C@H]2CC[C@H](C)CC2)c(C)c(-c2ccc3c(c2C)N(C)CCO3)c1[C@H](OC(C)(C)C)C(=O)O"
A. > 30 µM

----------
The following molecules are listed with their measured EC50 values.
# ASSAY_COMMENT: Inhibition of HIV NL4.3 integrase T124/T125 double mutant assessed as reduction in viral replication by luciferase reporter gene assay
# Set-up: species or system Human immunodeficiency virus
Please don't drop the unit; write it after the number.

Recorded results for 4 molecules are shown here.
smiles_data=Cc1nc(C(=O)N[C@H]2CC[C@H](C)CC2)c(C)c(-c2ccc3c(c2)NCCO3)c1[C@H](OC(C)(C)C)C(=O)O readout_type=EC50 value_measured="27 nM"
smiles_data=Cc1nc(C(=O)N[C@H]2CC[C@H](C)CC2)c(C)c(-c2ccc3c(c2)CCCO3)c1[C@H](OC(C)(C)C)C(=O)O readout_type=EC50 value_measured="4.2 nM"
smiles_data=Cc1nc(C(=O)N[C@H]2CC[C@H](C)CC2)c(C)c(-c2ccc3c(c2C)NCCO3)c1[C@H](OC(C)(C)C)C(=O)O readout_type=EC50 value_measured="7.5 nM"
smiles_data=Cc1nc(C(=O)N[C@H]2CC[C@H](O)CC2)c(C)c(-c2ccc(Cl)cc2)c1[C@H](OC(C)(C)C)C(=O)O readout_type=EC50 value_measured="930 nM"

Let us move to another entry and its EC50.
Q. Look up and state reported EC50 for "Cc1nc(-c2nc3cccc(C)c3n2C)c(C)c(-c2ccc(Cl)cc2)c1[C@H](OC(C)(C)C)C(=O)O"
A. 3 nM

----------
# ASSAY_COMMENT: Half life in rat
# Assay type: ADME
# SETTINGS: in vivo
READOUT_TYPE: half-life (h)
Report only the number, with the unit h understood.

Q. Look up and state reported half-life for "Cc1nc(C(=O)N[C@H]2CC[C@H](C)CC2)c(C)c(-c2ccc3c(c2C)N(C)CCO3)c1[C@H](OC(C)(C)C)C(=O)O"
A. 1.3

----------
The following compounds are listed with their measured Papp values.
# ASSAY_COMMENT: Apparent permeability in human Caco2 cells
# Format: ADME, cell-based
# SETTINGS: Caco-2
Report only the number, with the unit ×10⁻⁶ cm/s understood.

Q. Look up and state reported Papp for "Cc1nc(C(=O)N[C@H]2CC[C@H](C)CC2)c(C)c(-c2ccc3c(c2C)N(C)CCO3)c1[C@H](OC(C)(C)C)C(=O)O"
A. 39.8

Q. Look up and state reported Papp for "Cc1nc(-c2nc3ccccc3n2C)c(C)c(-c2ccc3c(c2C)N(C)CCO3)c1[C@H](OC(C)(C)C)C(=O)O"
A. 10.6

----------
# ASSAY_COMMENT: Inhibition of HIV NL4.3 integrase N124/A125 double mutant infected in PBMC assessed as reduction in viral replication by p24 ELISA
# SETTINGS: Human immunodeficiency virus 1, NL4.3
READOUT_TYPE: EC50

Q. Look up and state reported EC50 for "Cc1nc(C(=O)N[C@H]2CC[C@H](C)CC2)c(C)c(-c2ccc3c(c2C)N(C)CCO3)c1[C@H](OC(C)(C)C)C(=O)O"
A. 42 nM

----------
# ASSAY_COMMENT: Solubility of the compound at pH 6.8
# Type: physicochemical
# SETTINGS: buffer
READOUT_TYPE: solubility

smiles_data=Cc1nc(C(=O)N[C@H]2CC[C@H](C)CC2)c(C)c(-c2ccc3c(c2C)N(C)CCO3)c1[C@H](OC(C)(C)C)C(=O)O value_measured="930 µg/mL"

Let us move to another entry and its solubility.
Q. Look up and state reported solubility for "Cc1nc(-c2nc3ccccc3n2C)c(C)c(-c2ccc3c(c2C)N(C)CCO3)c1[C@H](OC(C)(C)C)C(=O)O"
A. > 1000 µg/mL

----------
# ASSAY_COMMENT: Clearance in human hepatocytes relative to hepatic blood flow
# Assay type: ADME, cell-based, Hepatocyte
# SETTINGS: read-out: CLH
READOUT_TYPE: hepatic extraction ratio
Answer with a bare number; do not write a unit.

smiles_data=Cc1nc(C(=O)N[C@H]2CC[C@H](C)CC2)c(C)c(-c2ccc3c(c2C)N(C)CCO3)c1[C@H](OC(C)(C)C)C(=O)O readout_type="hepatic extraction ratio" value_measured=0.17

Let us move to another entry and its hepatic extraction ratio.
Q. Look up and state reported hepatic extraction ratio for "Cc1nc(-c2nc3ccccc3n2C)c(C)c(-c2ccc3c(c2C)N(C)CCO3)c1[C@H](OC(C)(C)C)C(=O)O"
A. 0.24

----------
# ASSAY_COMMENT: Inhibition of HIV NL4.3 integrase T124/T125 double mutant assessed as reduction in viral replication by luciferase reporter gene assay
# Parameters: species or system Human immunodeficiency virus
The following compounds are listed with their measured pEC50 values.
// field semantics: pEC50 = negative decimal log of concentration (mol/L)

smiles_data=Cc1nc(NC(=O)c2ccccc2OC(F)(F)F)c(C)c(-c2ccc3c(c2)N(C)CCO3)c1[C@H](OC(C)(C)C)C(=O)O value_measured=8.13
smiles_data=Cc1ccc2[nH]c(-c3nc(C)c([C@H](OC(C)(C)C)C(=O)O)c(-c4ccc(Cl)cc4)c3C)nc2c1 value_measured=8.96
smiles_data=Cc1nc(NC(=O)c2ccccc2)c(C)c(-c2ccc(Cl)cc2)c1[C@H](OC(C)(C)C)C(=O)O value_measured=7.82

Q. Look up and state reported pEC50 for "Cc1nc(C(=O)N[C@H]2CC[C@H](C)CC2)c(C)c(-c2ccc3c(c2C)N(C)CCO3)c1[C@H](OC(C)(C)C)C(=O)O"
A. 8.60

Q. Look up and state reported pEC50 for "Cc1noc(C)c1-c1ccc(-c2nc(C)c([C@H](OC(C)(C)C)C(=O)O)c(-c3ccc4c(c3)CCCO4)c2C)cc1"
A. 8.26

Q. Look up and state reported pEC50 for "Cc1nc(C(=O)Nc2ccccc2)c(C)c(-c2ccc(Cl)cc2)c1[C@H](OC(C)(C)C)C(=O)O"
A. 7.92

Q. Look up and state reported pEC50 for "Cc1nc(-c2cn(-c3ccccc3)nn2)c(C)c(-c2ccc3c(c2)CCCO3)c1[C@H](OC(C)(C)C)C(=O)O"
A. 8.33

Q. Look up and state reported pEC50 for "Cc1nc(C(=O)NC(C)(C)C2CC2)c(C)c(-c2ccc(Cl)cc2)c1[C@H](OC(C)(C)C)C(=O)O"
A. 8.36

Q. Look up and state reported pEC50 for "Cc1nc(C(=O)N[C@H]2CC[C@H](C)CC2)c(C)c(-c2ccc3c4c(cccc24)CCO3)c1[C@H](OC(C)(C)C)C(=O)O"
A. 7.80

----------
# MEASUREMENT_TARGET: Cytochrome P450 3A4 (Homo sapiens, UniProt P08684)
# Sequence (P08684 whole entry): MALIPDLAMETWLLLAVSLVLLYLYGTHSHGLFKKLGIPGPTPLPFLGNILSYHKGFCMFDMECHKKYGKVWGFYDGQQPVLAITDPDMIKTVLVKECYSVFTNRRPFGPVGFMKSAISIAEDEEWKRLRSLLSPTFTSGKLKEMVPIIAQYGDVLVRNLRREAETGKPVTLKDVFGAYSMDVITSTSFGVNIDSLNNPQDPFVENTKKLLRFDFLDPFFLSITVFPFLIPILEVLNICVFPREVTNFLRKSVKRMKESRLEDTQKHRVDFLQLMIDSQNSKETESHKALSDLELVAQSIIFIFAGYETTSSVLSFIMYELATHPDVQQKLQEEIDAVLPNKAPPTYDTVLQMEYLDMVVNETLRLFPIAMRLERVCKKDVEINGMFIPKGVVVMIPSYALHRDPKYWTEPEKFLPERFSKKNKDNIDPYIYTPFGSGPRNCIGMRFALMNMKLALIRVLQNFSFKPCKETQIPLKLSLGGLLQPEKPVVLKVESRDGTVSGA
READOUT_TYPE: IC50

Q. Enter IC50 (test system Cytochrome P450 3A4 (Homo sapiens, UniProt P08684)) for "Cc1nc(C(=O)N[C@H]2CC[C@H](C)CC2)c(C)c(-c2ccc3c(c2C)N(C)CCO3)c1[C@H](OC(C)(C)C)C(=O)O"
A. > 30 µM

----------
# ASSAY_COMMENT: Clearance in rat hepatocytes relative to hepatic blood flow
# Format: ADME, cell-based, Hepatocyte
# SETTINGS: read-out: CLH
READOUT_TYPE: hepatic extraction ratio
Answer with a bare number; do not write a unit.

smiles_data=Cc1nc(-c2nc3ccccc3n2C)c(C)c(-c2ccc3c(c2C)N(C)CCO3)c1[C@H](OC(C)(C)C)C(=O)O value_measured=0.19

Let us move to another entry and its hepatic extraction ratio.
Q. Look up and state reported hepatic extraction ratio for "Cc1nc(C(=O)N[C@H]2CC[C@H](C)CC2)c(C)c(-c2ccc3c(c2C)N(C)CCO3)c1[C@H](OC(C)(C)C)C(=O)O"
A. 0.07

----------
# ASSAY_COMMENT: Clearance in dog hepatocytes relative to hepatic blood flow
# Format: ADME, cell-based, Canis lupus familiaris, Hepatocyte
# SETTINGS: read-out: CLH
READOUT_TYPE: hepatic extraction ratio
Answer with a bare number; do not write a unit.

Q. Look up and state reported hepatic extraction ratio for "Cc1nc(C(=O)N[C@H]2CC[C@H](C)CC2)c(C)c(-c2ccc3c(c2C)N(C)CCO3)c1[C@H](OC(C)(C)C)C(=O)O"
A. 0.31

----------
# System: Human immunodeficiency virus
# ASSAY_COMMENT: Ratio of EC50 for HIV1 NL4.3 integrase N124/T125 double mutant in presence of human serum to EC50 for HIV1 NL4.3 integrase N124/T125 double mutant in absence of human serum
READOUT_TYPE: Ratio EC50
Answer with a bare number; do not write a unit.

smiles_data=Cc1nc(NC(=O)c2ccccc2OC(F)(F)F)c(C)c(-c2ccc3c(c2C)N(C)CCO3)c1[C@H](OC(C)(C)C)C(=O)O measurement_target="Human immunodeficiency virus" readout_type="Ratio EC50" value_measured=2.6
smiles_data=Cc1ccc2nc(-c3nc(C)c([C@H](OC(C)(C)C)C(=O)O)c(-c4ccc5c(c4C)N(C)CCO5)c3C)n(C)c2c1 measurement_target="Human immunodeficiency virus" readout_type="Ratio EC50" value_measured=3.9
smiles_data=Cc1nc(C(=O)N[C@H]2CC[C@H](C)CC2)c(C)c(-c2ccc3c(c2C)N(C)CCO3)c1[C@H](OC(C)(C)C)C(=O)O measurement_target="Human immunodeficiency virus" readout_type="Ratio EC50" value_measured=2.9
smiles_data=Cc1ccc2[nH]c(-c3nc(C)c([C@H](OC(C)(C)C)C(=O)O)c(-c4ccc(Cl)cc4)c3C)nc2c1 measurement_target="Human immunodeficiency virus" readout_type="Ratio EC50" value_measured=13
smiles_data=Cc1noc(C)c1-c1ccc(-c2nc(C)c([C@H](OC(C)(C)C)C(=O)O)c(-c3ccc4c(c3)CCCO4)c2C)cc1 measurement_target="Human immunodeficiency virus" readout_type="Ratio EC50" value_measured=7.8
smiles_data=Cc1nc(C(=O)N[C@H]2CC[C@H](C)CC2)c(C)c(-c2ccc3c4c(cccc24)CCO3)c1[C@H](OC(C)(C)C)C(=O)O measurement_target="Human immunodeficiency virus" readout_type="Ratio EC50" value_measured=2.9
smiles_data=Cc1nc(C(=O)N[C@H]2CC[C@H](C)CC2)c(C)c(-c2ccc3c(c2C)NCCO3)c1[C@H](OC(C)(C)C)C(=O)O measurement_target="Human immunodeficiency virus" readout_type="Ratio EC50" value_measured=3
smiles_data=Cc1nc(C(=O)NC(C)(C)C2CC2)c(C)c(-c2ccc(Cl)cc2)c1[C@H](OC(C)(C)C)C(=O)O measurement_target="Human immunodeficiency virus" readout_type="Ratio EC50" value_measured=1.5

Let us move to another entry and its Ratio EC50.
Q. Look up and state reported Ratio EC50 for "Cc1nc(C(=O)NCc2ccccc2)c(C)c(-c2ccc3c(c2)CCCO3)c1[C@H](OC(C)(C)C)C(=O)O"
A. 23
